Test system: Rattus norvegicus
Test: In vivo sterol lowering activity at dose of 0.10 % of the diet
Type: functional
measurementType: serum sterol level, percent of control (%)

[[record]]
compound = "CCCCCCCCCCCCCCCCN(CC(=O)O)c1ccc(C(=O)O)cc1"
measurementtype = "serum sterol level, percent of control"
inequalityoperator = "="
observedmeasurement = 93

[[record]]
compound = "CCCCCCCCCCCCCCCCNc1ccc(C(=O)N(C)C)cc1"
measurementtype = "serum sterol level, percent of control"
inequalityoperator = "="
observedmeasurement = 93

[[record]]
compound = "CCCCCCCCCCCCCCCCNc1ccc(C(=O)Oc2ccc(C(=O)OC(C)(C)C)cc2)cc1"
measurementtype = "serum sterol level, percent of control"
inequalityoperator = "="
observedmeasurement = 103

[[record]]
compound = "CCCCCCCCCCCCCCCCNc1ccc(C(=O)OCC2CO2)cc1 (stereo unspecified)"
measurementtype = "serum sterol level, percent of control"
inequalityoperator = "<"
observedmeasurement = 75

[[record]]
compound = "CCCCCCCCCCCCCCCCNc1ccc(C(=O)OCC(O)CO)cc1 (stereo unspecified)"
measurementtype = "serum sterol level, percent of control"
inequalityoperator = "<"
observedmeasurement = 71

[[record]]
compound = "CCCCCCCCCCCCCCCCN(C(=O)CCCCCCCCCCCCCCC)c1ccc(C(=O)OCC(O)CO)cc1 (stereo unspecified)"
measurementtype = "serum sterol level, percent of control"
inequalityoperator = "="
observedmeasurement = 99

[[record]]
compound = "CCCCCCCCCCCCCCCCNC1CCC(C(=O)OC)CC1 (stereo unspecified)"
measurementtype = "serum sterol level, percent of control"
inequalityoperator = "<"
observedmeasurement = 71

[[record]]
compound = "CCCCCCCCCCCCCCCCN(C(=O)C(F)(F)F)c1ccc(C(=O)NO)cc1"
measurementtype = "serum sterol level, percent of control"
inequalityoperator = "="
observedmeasurement = 96

[[record]]
compound = "CCCCCCCCCCCCCCCCNc1ccc(C(=O)COC)cc1"
measurementtype = "serum sterol level, percent of control"
inequalityoperator = "="
observedmeasurement = 91

[[record]]
compound = "CCCCCCCCCCCCCCCCNc1ccc(C(=O)OCC(COC(=O)c2ccc(NCCCCCCCCCCCCCCCC)cc2)OC(C)=O)cc1"
measurementtype = "serum sterol level, percent of control"
inequalityoperator = "="
observedmeasurement = 89

[[record]]
compound = "CCCCCCCCCCCCCCCCN(C(C)=O)c1ccc(CO)cc1"
measurementtype = "serum sterol level, percent of control"
inequalityoperator = "="
observedmeasurement = 99

[[record]]
compound = "CCCCCCCCCCCCCCCCNc1ccc(C(=O)NCC(=O)O)cc1"
measurementtype = "serum sterol level, percent of control"
inequalityoperator = "<"
observedmeasurement = 77

[[record]]
compound = "CCCCCCCCCCCCCCCCNc1ccc(C(C)(C)C(=O)O)cc1"
measurementtype = "serum sterol level, percent of control"
inequalityoperator = "="
observedmeasurement = 107

[[record]]
compound = "CCCCCCCCCCCCCCCCNc1ccc(C(=O)OCC(COC(=O)CCCCCCCCCCCCCCC)OC(=O)CCCCCCCCCCCCCCC)cc1 (stereo unspecified)"
measurementtype = "serum sterol level, percent of control"
inequalityoperator = "<"
observedmeasurement = 80

[[record]]
compound = "CCCCCCCCCCCCCCCCNc1csc(C(=O)OCC)c1"
measurementtype = "serum sterol level, percent of control"
inequalityoperator = "="
observedmeasurement = 112

[[record]]
compound = "CCCCCCCCCCCCCCCCNc1ccc(C(=O)C(C#N)C(=O)OCC)cc1 (stereo unspecified)"
measurementtype = "serum sterol level, percent of control"
inequalityoperator = "="
observedmeasurement = 100

[[record]]
compound = "CCCCCCCCCCCCCCCCN(C(C)=O)c1ccc(C(OC(C)=O)C(N)=O)cc1 (stereo unspecified)"
measurementtype = "serum sterol level, percent of control"
inequalityoperator = "="
observedmeasurement = 110

[[record]]
compound = "CCCCCCCCCCCCCCCCNc1ccc(C(=O)OC)cn1"
measurementtype = "serum sterol level, percent of control"
inequalityoperator = "="
observedmeasurement = 114

[[record]]
compound = "CCCCCCCCCCCCCCCCNc1ccc(C(=O)OC/C=C/COC(=O)c2ccc(NCCCCCCCCCCCCCCCC)cc2)cc1"
measurementtype = "serum sterol level, percent of control"
inequalityoperator = "="
observedmeasurement = 91

[[record]]
compound = "CCCCCCCCCCCCCCCCN(C(=O)C(F)(F)F)c1ccc(C(=O)N2CCCCC2)cc1"
measurementtype = "serum sterol level, percent of control"
inequalityoperator = "="
observedmeasurement = 92

[[record]]
compound = "CCCCCCCCCCCCCCCCNc1ccc(C(=O)OCC2COC(c3ccccc3)O2)cc1 (stereo unspecified)"
measurementtype = "serum sterol level, percent of control"
inequalityoperator = "="
observedmeasurement = 84


----------
Quick list: serum sterol level, percent of control per entry.
Tested on: Rattus norvegicus
Experiment: In vivo sterol lowering activity at dose of 0.10 % of the diet
Format: functional
measurementType: serum sterol level, percent of control (%)

[[record]]
molecule = "CCCCCCCCCCCCCCCCNc1ccc(C(=O)OCCO)cc1"
inequalityoperator = "<"
observedmeasurement = 83

[[record]]
molecule = "CCCCCCCCCCCCCCCCNc1ccc(C(=O)CC(=O)OC)cc1"
inequalityoperator = "<"
observedmeasurement = 84

[[record]]
molecule = "CCCCCCCCCCCCCCCCNc1ccc(C(=O)NC(C)=O)cc1"
inequalityoperator = "="
observedmeasurement = 91

[[record]]
molecule = "CCCCCCCCCCCCCCCCNc1ccc(C(=O)OCC(=O)O)cc1"
inequalityoperator = "<"
observedmeasurement = 83

[[record]]
molecule = "CCCCCCCCCCCCCCCCNc1ccc(C(=O)OCC(O)COCC)cc1 (stereo not drawn)"
inequalityoperator = "<"
observedmeasurement = 68

[[record]]
molecule = "CCCCCCCCCCCCCCCCNc1ccc(C(=O)CS(C)(=O)=O)cc1"
inequalityoperator = "="
observedmeasurement = 100

[[record]]
molecule = "CCCCCCCCCCCCCCCCNc1ccc(C(=O)NNC(C)=O)cc1"
inequalityoperator = "="
observedmeasurement = 91

[[record]]
molecule = "CCCCCCCCCCCCCCCCCN(C)c1ccc(C(=O)O)cc1"
inequalityoperator = "="
observedmeasurement = 98

[[record]]
molecule = "CCCCCCCCCCCCCCCCNc1csc(C#N)c1"
inequalityoperator = "="
observedmeasurement = 92

[[record]]
molecule = "C=CCOC(=O)c1ccc(NCCCCCCCCCCCCCCCC)cc1"
inequalityoperator = "<"
observedmeasurement = 81

[[record]]
molecule = "CCCCCCCCCCCCCCCCCN(CC)c1ccc(C(=O)O)cc1"
inequalityoperator = "="
observedmeasurement = 95

[[record]]
molecule = "CCCCCCCCCCCCCCCCNc1ccc(C(=O)OC2CCCCO2)cc1 (stereo not drawn)"
inequalityoperator = "<"
observedmeasurement = 74

[[record]]
molecule = "CCCCCCCCCCCCCCCCNc1ccc(C(=O)C(C)C(=O)OCC)cc1 (stereo not drawn)"
inequalityoperator = "<"
observedmeasurement = 73

[[record]]
molecule = "CCCCCCCCCCCCCCCCN(CC)c1ccc(C(=O)O)cc1"
inequalityoperator = "<"
observedmeasurement = 86

[[record]]
molecule = "CCCCCCCCCCCCCCCCNc1ccc(C(=O)NO)cc1"
inequalityoperator = "="
observedmeasurement = 104

[[record]]
molecule = "CCCCCCCCCCCCCCCCCCN(C)c1ccc(C(=O)O)cc1"
inequalityoperator = "="
observedmeasurement = 91

[[record]]
molecule = "CCCCCCCCCCCCCCCCN(C(=O)C(F)(F)F)c1ccc(C(=O)Nc2ccc(C(=O)OCC)cc2)cc1"
inequalityoperator = "="
observedmeasurement = 95

[[record]]
molecule = "CCCCCCCCCCCCCCCCN(C(C)=O)c1ccc(COC(C)=O)cc1"
inequalityoperator = "="
observedmeasurement = 95

[[record]]
molecule = "CCCCCCCCCCCCCCCCNc1ccc(C(=O)NS(C)(=O)=O)cc1"
inequalityoperator = "<"
observedmeasurement = 87

[[record]]
molecule = "CCCCCCCCCCCCCCCCNc1cc(C(=O)[O-])c(C(=O)[O-])c(C(=O)[O-])c1.[Na+].[Na+].[Na+]"
inequalityoperator = "="
observedmeasurement = 97

[[record]]
molecule = "CCCCCCCCCCCCCCCCNc1ccc(CCC(=O)OCC)cc1"
inequalityoperator = "="
observedmeasurement = 84

[[record]]
molecule = "CCCCCCCCCCCCCCCCNc1ccc(CCCC(=O)O)cc1"
inequalityoperator = "="
observedmeasurement = 97

[[record]]
molecule = "CCCCCCCCCCCCCCCCNc1ccc(C(=O)O)cn1"
inequalityoperator = "="
observedmeasurement = 90


----------
// values below are reported serum triglyceride level, percent of control
Test system: Rattus norvegicus
Assay: In vivo triglyceride lowering activity when dosed as 0.01 % of the diet
Assay type: functional
measurementType: serum triglyceride level, percent of control (%)

[[record]]
smilescode = "CCCCCCCCCCCCCCCCNc1ccc(C2OCCO2)cc1"
inequalityoperator = "="
observedmeasurement = 100

[[record]]
smilescode = "CCCCCCCCCCCCCCCCN(C)c1ccc(C(=O)OCC)cc1"
inequalityoperator = "<"
observedmeasurement = 64

[[record]]
smilescode = "CCCCCCCCCCCCCCCCN(C=O)c1ccc(C(=O)OCC)cc1"
inequalityoperator = "="
observedmeasurement = 102

[[record]]
smilescode = "CCCCCCCCCCCCCCCCNc1ccc(C(=O)O)cn1"
inequalityoperator = "="
observedmeasurement = 121

